Assay Overview: JC-1 mitochondrial signal, unstimulated HepG2 cells – cell-based, JC-1 fluorescence, 24 h, 100 nL compound, profiling panel (AID 1167)
Conditions Used: HepG2 mitochondrial potential, higher = more signal
Would you mind telling me the reported z-score of each entry?
Answer using only a numeral; do not append any unit.

Q: Quick one: z-score of CN(C)C(=O)[C@]1(Cc2ccccc2)N=C(c2ccc(OCCCO)cc2)O[C@@H]1c1ccccc1CN=[N+]=[N-] ?
Ans: 0.501

Q: Which measured z-score value corresponds to CC(C)C(=C=CC[C@H](O)c1ccccc1OCCO)C[C@H](O)c1cc(Cl)cc(Cl)c1O ?
Ans: -1.1

Q: Suppose we examine the molecule C=CCN1C(=O)[C@]2(O[C@H](CCn3cc([C@H](O)c4ccccc4)nn3)[C@@H]([Si](C)(C)c3ccc(OC)cc3)[C@@H]2C)c2cc(NC(=O)c3ccc(OC)cc3)ccc21 ; what z-score value has been reported?
Ans: 3.48

Q: Name the reported z-score value associated with the molecule COCCCN1C(=O)[C@@]2(c3ccc([N+](=O)[O-])cc3)CC(=O)N(CC34CC5CC(CC(C5)C3)C4)[C@@H]2c2ccc(CO)cc21
Ans: 0.722

---

System: Fibrinogen (Alexa647-labelled)
Assay Overview: Alexa647-fibrinogen binding to printed small molecules – biochemical, small-molecule microarray, 635/667 nm fluorescence, artefact control for SMM control-protein annotation, profiling panel (AID 1131);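 note: z-score merges 667 nm fluorescence with per-spot signal-to-noise over triplicate slides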
Conditions Used: fibrinogen-A647 binding fluorescence, higher = more signal
Reported Endpoint: composite z-score

Q: Fill in the blank: the reported composite z-score of O=C(NC1CC1)[C@@H]1c2ccccc2C(=O)N(CC23CC4CC(CC(C4)C2)C3)[C@H]1c1ccc(CO)cc1 is ____.
Ans: 0.919

Q: State the recorded composite z-score for this entry: CN1C(=O)[C@@H]2[C@@H](CC(COc3ccccc3)=C3[C@@H](CCc4ccccc4)OB(O)C[C@@H]32)C1=O
Ans: 0.48

Q: Record request: composite z-score value, item CCCCCC1=C2CNC(CC(C)C)(C(=O)OC)C=C2C(C)C1=O (configuration not stated)
Ans: 0.955

Q: Item under review: O=C1O[C@H](c2ccccc2)[C@H](c2ccccc2)N2[C@H]1[C@@H](C(=O)N1CCN(c3ncccn3)CC1)[C@]1(C(=O)Nc3ccc(C#CCCO)cc31)[C@H]2c1ccc(O)cc1 . Reported composite z-score?
Ans: 0.888

Q: Item COCCCN1C(=O)[C@@]2(c3ccc([N+](=O)[O-])cc3)CC(=O)N(CC34CC5CC(CC(C5)C3)C4)[C@@H]2c2ccc(CO)cc21 has what recorded composite z-score?
Ans: -0.753

Q: Fill in the blank: the reported composite z-score of O=C1C[C@]2(c3ccc([N+](=O)[O-])cc3)C(=O)N(C3CC3)c3cc(CO)ccc3[C@H]2N1C1CCCCC1 is ____.
Ans: -0.408

Q: Fill in the blank: the reported composite z-score of COc1ccc([Si](C)(C)[C@@H]2[C@@H](CC(=O)N3Cc4ccccc4C[C@H]3CO)O[C@]3(C(=O)N(Cc4ccc(N5CCOC5=O)cc4)c4ccccc43)[C@H]2C)cc1 is ____.
Ans: 0.55

---

Test system: XIP peptide (Xip251-270) binding
Assay Overview: XIP fragment 251-270 binding compounds – biochemical, small-molecule microarray, fluorescence 635/667 nm, 0.1 µg/mL protein, primary screen (AID 1182)
Conditions Used: fluorescent protein binding, 635 nm, higher = more signal, called active from +8 up or from −8 down
Assign composite z-score to each entry below.
Give your answer as a number; write no unit.

Q: Which composite z-score is reported for this molecule? C=CCN1C(=O)[C@]2(O[C@H](CCn3cc([C@H](O)c4ccccc4)nn3)[C@@H]([Si](C)(C)c3ccc(OC)cc3)[C@@H]2C)c2cc(NC(=O)c3ccc(OC)cc3)ccc21
Ans: 0.586

Q: Form field: reported composite z-score of C=CCC(OC(C)=O)[C@@H]1[C@@H](N(Cc2cc3ccccc3o2)C(=O)Cc2ccc(OC)cc2)c2cc(OCCCO)ccc2N1C(=O)c1ccc2ccccc2n1 (some centres undefined)
Ans: -0.206

Q: GET /values?readout=composite z-score&item= CO[C@H]1O[C@H](CO)[C@@H](OC(=O)Nc2ccc3c(c2)OCO3)[C@H](OC(=O)Nc2ccccc2-c2ccccc2)[C@H]1OC(=O)Nc1ccccc1-c1ccccc1
Ans: 0.667

Q: Any idea what composite z-score was measured for C[C@@H]1ON(c2ccc(I)cc2)[C@H](c2cccc(NC(=O)OCC3c4ccccc4-c4ccccc43)c2)[C@H]1C(=O)N1C(=O)OC[C@H]1Cc1ccccc1 ?
Ans: -0.283

Q: Given the entry CN(C)CCCNC(=O)[C@@H]1c2ccccc2C(=O)N(Cc2ccccc2C(F)(F)F)[C@H]1c1ccc(CO)cc1 , report its measured composite z-score.
Ans: -0.638

Q: # composite z-score lookup, item COC(=O)C(CC#Cc1ccc2c(c1)[C@]1(C(=O)N2)[C@H](C(=O)N2CCc3cc(OC)c(OC)cc3C2)[C@H]2C(=O)O[C@H](c3ccccc3)[C@H](c3ccccc3)N2[C@@H]1c1ccccc1OCCO)C(=O)OC
Ans: 0.254

Q: Value lookup for composite z-score; key = COCCCN1C(=O)[C@@]2(c3ccc([N+](=O)[O-])cc3)CC(=O)N(CC34CC5CC(CC(C5)C3)C4)[C@@H]2c2ccc(CO)cc21
Ans: 0.264

Q: Fill blank: measured composite z-score of the molecule C=CC[C@@]1(C(=O)N(C)C)N=C(c2ccc(OCCCO)cc2)O[C@@H]1c1ccccc1CN=[N+]=[N-] is ____.
Ans: 0.161

Q: Query (molecule): Cc1ccccc1C(O)C1C=CC2C(=O)N(c3ccccc3)C(=O)C2N1Nc1ccccc1 (centres undefined) ; field requested: composite z-score
Ans: 0.766

Q: Query: composite z-score; subject: O=C1O[C@H](Cc2ccccc2)[C@@H]2[C@H]3C=CCCC=C3CN2[C@H]1Cc1ccc(O)cc1
Ans: 0.127

Q: Endpoint output: composite z-score of C=C(/C(=C/C[C@@H](OC(C)=O)c1cccc(OCCO)c1)c1cnc2ccccc2c1)C(C)C . Value?
Ans: -0.136

Q: May I ask what composite z-score has been recorded for CC(C)C(O)C1C=CC2C(=O)NC(=O)C2N1Nc1ccccn1 (centres undefined) ?
Ans: 0.163

Q: For the molecule shown here, O=C1[C@H]2C=C(I)[C@H](C[C@@H]2OCCCCCCO)[C@@]12CO2 , give the reported composite z-score.
Ans: -0.0604

Q: # composite z-score lookup, item NC(=O)N1C(=O)C2C(C1=O)C1C=C(CCCO)C2C(c2ccc(CN3CCCC3)cc2)N1Cc1sc2ccccc2c1Cl (centres undefined)
Ans: -0.211

---

Tested Target: Pro-neuregulin-1, membrane-bound isoform (Homo sapiens)
Assay Overview: small molecules binding neuregulin-1 protein – biochemical, small-molecule microarray, fluorescence 635/667, psychiatric disease protein project, primary screen (AID 1075);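 note: score combines 667 nm spot fluorescence with signal to noise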
Conditions Used: NRG1 binding, 635 nm fluorescence, higher = more signal
Reported Endpoint: composite z-score
// print number alone

Q: Can you share its composite z-score? I mean this compound: CCOC(=O)C1=CC[C@@H](c2ccccc2)N(S(=O)(=O)c2ccc(C)cc2)[C@H]1c1ccccc1I
Ans: 1.05

Q: Please report the recorded composite z-score for CN1C(=O)C2C(C3CC3)C=C3CN(Cc4cccc(Cl)c4)[C@@H]([C@@H](O)Cc4ccccc4)C3C2C1=O (some centres undefined) .
Ans: 1.03

Q: Data request, read-out composite z-score, for C=CC1c2cc(O)c(OC)cc2CCN1C (centres undefined)
Ans: 0.0582

Q: Consider the compound COC(=O)C(CC#Cc1ccc2c(c1)[C@]1(C(=O)N2)[C@H](c2ccc(OCCO)cc2)N2[C@H](c3ccccc3)[C@H](c3ccccc3)OC(=O)[C@H]2[C@@H]1C(=O)N1CCCCCCC1)C(=O)OC and give its measured composite z-score.
Ans: 1.93

---

System: Noggin (protein binding on small-molecule microarray)
Assay Overview: small molecules binding Noggin protein – biochemical, 635/667 nm fluorescence, primary screen (AID 1095);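 note: score merges 667 nm feature fluorescence with signal to noise over triplicate slides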
Conditions Used: 635 nm fluorescence, higher = more signal
Lab note: anything with composite z-score at or over 0.2 counts as 1 (yes); the rest go in 0 (no).

Q: Textbook exercise: given the entry COc1cc(OC)c(C(O)C2C=CC3C(=O)N(c4ccccc4)C(=O)C3N2Nc2ccc(C(C)C)cc2)cc1Br (stereo not given) , state whether its composite z-score is greater than or equal to 0.2.
Ans: 0 (no)

Q: Has COC(=O)[C@@]1(Cc2ccccc2)[C@H]2c3cc(C(=O)N4CCCC4)n(Cc4ccc(OC)c(OC)c4)c3C[C@H]2CN1C(=O)c1ccccc1 a recorded composite z-score greater than or equal to 0.2?
Ans: 0 (no)

Q: Entry CC(C)(C)N1CC=CC23O[C@@H]4C=CCCOC(=O)C4[C@H]2C(=O)N(CCCCCCO)[C@@H]3C1=O (stereo not given in full) : is its composite z-score no less than 0.2?
Ans: 0 (no)

Q: Does the compound COc1ccc(C(=O)Nc2cccc(CN3C(=O)[C@]4(O[C@H](CC(=O)N5Cc6ccccc6C[C@H]5CO)[C@@H]([Si](C)(C)c5ccc(OC)cc5)[C@@H]4C)c4ccccc43)c2)cc1 have recorded composite z-score that is 0.2 or more?
Ans: 1 (yes)

Q: For this compound, is measured composite z-score 0.2 or higher? O=C(NCCN1CCOCC1)[C@@H]1c2ccccc2C(=O)N(Cc2ccccc2C(F)(F)F)[C@H]1c1ccc(CO)cc1
Ans: 0 (no)

Q: Assess whether reported composite z-score for O=C1N(CCS(=O)(=O)c2ccccc2)c2ccccc2C[C@]12N=C(c1ccc(OCCCO)cc1)O[C@@H]2c1ccccc1 sits at 0.2 or higher.
Ans: 1 (yes)

Q: // inclusive: composite z-score at least 0.2? input: C#CCN1[C@@H](Cc2ccccc2)C(=O)O[C@H](Cc2ccccc2)[C@@H]1/C=C/C1CC1
Ans: 1 (yes)

Q: composite z-score >= 0.2 for CCOC(=O)C1=CC[C@@H](c2ccc(OC)cc2)N(S(=O)(=O)c2ccc(C)cc2)[C@H]1c1ccc(C)cc1 ?
Ans: 0 (no)

Q: Is reported composite z-score greater than or equal to 0.2 here: O=C(O)[C@H](Cc1ccccc1)n1cc(C2(O)CCCCC2)nn1
Ans: 1 (yes)

Q: Tell me whether composite z-score is at least 0.2 here: COC(=O)[C@H](Cc1ccccc1)N1CC2=CCCC=C[C@@H]2[C@H]1[C@H](O)Cc1ccccc1
Ans: 1 (yes)

Q: Decide: is the reported value of composite z-score for O=C(NC1CC1)[C@@H]1c2ccccc2C(=O)N(Cc2ccc(OC(F)(F)F)cc2)[C@H]1c1ccc(CO)cc1 equal to or greater than 0.2?
Ans: 1 (yes)

Q: Is the recorded value of composite z-score equal to or greater than 0.2 for this compound? NC(=O)N1C(=O)C2C(C1=O)C1C=C(CCCO)C2C(C2CC2)N1Cc1sc2ccccc2c1Cl (stereo not given)
Ans: 1 (yes)

Q: Decide: is the reported value of composite z-score for CCCCC(O)C1C=CC2C(=O)N(c3ccccc3)C(=O)C2N1Nc1ccccc1 (stereo not given) equal to or greater than 0.2?
Ans: 0 (no)

Q: Exam item: decide whether the reported composite z-score for N#Cc1ccc(C(O)C2C=CC3C(=O)NC(=O)C3N2Nc2ccc(Cl)cc2Cl)cc1 (stereo not given) is at least 0.2.
Ans: 0 (no)

Q: // inclusive: composite z-score at least 0.2? input: COCCOC(=O)N1C(=O)[C@@]2(c3cc(C#CCC(C(=O)OC)C(=O)OC)ccc31)[C@H](c1ccc(O)cc1)N1[C@H](c3ccccc3)[C@H](c3ccccc3)OC(=O)[C@H]1[C@@H]2C(=O)Nc1nc2ccccc2s1
Ans: 1 (yes)
